pKi values by entry
- experimental-system: ncOGT (Homo sapiens)
pKi: −log10 of the molar value.
measured-quantity: pKi

{"compound": "CC(=O)N[C@@H]1C(OP(=O)(O)OP(=O)(O)OC[C@H]2O[C@@H](n3ccc(=O)[nH]c3=O)[C@H](O)[C@@H]2O)SC(CO)C(O)[C@@H]1O (some centres unmarked) [UDP-5SGlcNAc, reference compound]", "number": 5.30}
{"compound": "COc1ccccc1[C@@H](NS(=O)(=O)c1ccc2[nH]c(=O)ccc2c1)C(=O)N(Cc1ccco1)Cc1cccs1", "number": 6.40}

----------
- experimental-system: UniProtKB O15294
- Sequence (O15294 1-665 isoform O15294-4): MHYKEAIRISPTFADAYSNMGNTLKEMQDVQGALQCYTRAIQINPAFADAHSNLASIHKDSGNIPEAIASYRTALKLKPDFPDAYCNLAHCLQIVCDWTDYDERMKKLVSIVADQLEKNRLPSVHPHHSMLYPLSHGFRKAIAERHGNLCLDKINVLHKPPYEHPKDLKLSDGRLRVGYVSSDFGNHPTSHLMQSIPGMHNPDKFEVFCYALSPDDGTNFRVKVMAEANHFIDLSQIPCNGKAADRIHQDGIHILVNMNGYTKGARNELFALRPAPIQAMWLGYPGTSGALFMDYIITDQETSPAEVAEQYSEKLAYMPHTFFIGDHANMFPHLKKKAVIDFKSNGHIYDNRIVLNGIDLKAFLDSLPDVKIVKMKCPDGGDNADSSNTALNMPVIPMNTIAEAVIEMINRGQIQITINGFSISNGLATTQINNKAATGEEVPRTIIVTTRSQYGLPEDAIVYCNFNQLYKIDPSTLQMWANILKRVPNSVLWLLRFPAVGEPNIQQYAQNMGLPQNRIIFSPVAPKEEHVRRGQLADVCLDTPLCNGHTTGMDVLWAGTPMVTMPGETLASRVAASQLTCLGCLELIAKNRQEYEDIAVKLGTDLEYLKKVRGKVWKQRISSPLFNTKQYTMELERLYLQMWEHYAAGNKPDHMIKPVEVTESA
measured-quantity: IC50 (µM)

{"compound": "Cc1ccc(N2CCN(C(=O)[C@H](NS(=O)(=O)c3ccc4[nH]c(=O)ccc4c3)c3ccccc3)CC2)cc1", "measured-quantity": "IC50", "number": 9}

----------
% OGT activity (100 μM treatment) values by entry
- experimental-system: sOGT (Homo sapiens)
- Sequence (O15294 1-665 isoform O15294-4): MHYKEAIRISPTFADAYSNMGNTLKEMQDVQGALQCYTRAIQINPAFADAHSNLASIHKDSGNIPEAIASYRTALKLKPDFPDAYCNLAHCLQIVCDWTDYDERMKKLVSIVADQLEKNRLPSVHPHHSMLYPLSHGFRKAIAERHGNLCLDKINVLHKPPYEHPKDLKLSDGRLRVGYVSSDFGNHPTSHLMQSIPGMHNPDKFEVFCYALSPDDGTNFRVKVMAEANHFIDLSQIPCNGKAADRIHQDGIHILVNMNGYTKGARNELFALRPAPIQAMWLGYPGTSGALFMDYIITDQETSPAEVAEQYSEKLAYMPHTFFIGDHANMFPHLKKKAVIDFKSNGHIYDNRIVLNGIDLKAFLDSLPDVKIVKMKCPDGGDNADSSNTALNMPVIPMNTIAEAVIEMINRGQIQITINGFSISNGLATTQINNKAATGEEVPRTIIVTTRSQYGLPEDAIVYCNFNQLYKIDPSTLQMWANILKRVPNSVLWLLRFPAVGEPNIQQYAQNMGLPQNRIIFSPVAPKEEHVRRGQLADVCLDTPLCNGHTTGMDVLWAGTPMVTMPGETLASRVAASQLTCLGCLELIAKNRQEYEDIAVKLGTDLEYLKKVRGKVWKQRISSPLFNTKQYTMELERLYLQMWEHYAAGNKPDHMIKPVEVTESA
- assay-text: Fluorescence polarization displacement screen with fluorescein-linked UDP-GlcNAc analog
- Assay type: binding
- assay-conditions: 100 μM treatment

{"compound": "O=C(C1c2ccccc2CN1S(=O)(=O)c1ccc2[nH]c(=O)ccc2c1)N(Cc1ccco1)Cc1cccs1 (centres unmarked) [drawing 114]", "% OGT activity (100 μM treatment)": "43%"}
{"compound": "Cc1ccccc1C(NS(=O)(=O)c1ccc2[nH]c(=O)ccc2c1)C(=O)N(Cc1ccco1)Cc1cccs1 (centres unmarked) [drawing 132]", "% OGT activity (100 μM treatment)": "4.5%"}
{"compound": "Cc1ccc(C(NS(=O)(=O)c2ccc3[nH]c(=O)ccc3c2)C(=O)N(Cc2ccco2)Cc2cccs2)cc1 (centres unmarked) [drawing 130]", "% OGT activity (100 μM treatment)": "11%"}
{"compound": "Cc1ccccc1C(NS(=O)(=O)c1ccc2[nH]c(=O)ccc2c1)C(=O)N(Cc1ccco1)Cc1cccs1 (centres unmarked) [drawing 136]", "% OGT activity (100 μM treatment)": "10%"}

These entries and their values trace back to patent US20170166558A1.
